Data origin, for the record: paper PMC10209341

# ASSAY_SYSTEM: VEGFR3 (Homo sapiens)
# Sequence (P35916 25-1363): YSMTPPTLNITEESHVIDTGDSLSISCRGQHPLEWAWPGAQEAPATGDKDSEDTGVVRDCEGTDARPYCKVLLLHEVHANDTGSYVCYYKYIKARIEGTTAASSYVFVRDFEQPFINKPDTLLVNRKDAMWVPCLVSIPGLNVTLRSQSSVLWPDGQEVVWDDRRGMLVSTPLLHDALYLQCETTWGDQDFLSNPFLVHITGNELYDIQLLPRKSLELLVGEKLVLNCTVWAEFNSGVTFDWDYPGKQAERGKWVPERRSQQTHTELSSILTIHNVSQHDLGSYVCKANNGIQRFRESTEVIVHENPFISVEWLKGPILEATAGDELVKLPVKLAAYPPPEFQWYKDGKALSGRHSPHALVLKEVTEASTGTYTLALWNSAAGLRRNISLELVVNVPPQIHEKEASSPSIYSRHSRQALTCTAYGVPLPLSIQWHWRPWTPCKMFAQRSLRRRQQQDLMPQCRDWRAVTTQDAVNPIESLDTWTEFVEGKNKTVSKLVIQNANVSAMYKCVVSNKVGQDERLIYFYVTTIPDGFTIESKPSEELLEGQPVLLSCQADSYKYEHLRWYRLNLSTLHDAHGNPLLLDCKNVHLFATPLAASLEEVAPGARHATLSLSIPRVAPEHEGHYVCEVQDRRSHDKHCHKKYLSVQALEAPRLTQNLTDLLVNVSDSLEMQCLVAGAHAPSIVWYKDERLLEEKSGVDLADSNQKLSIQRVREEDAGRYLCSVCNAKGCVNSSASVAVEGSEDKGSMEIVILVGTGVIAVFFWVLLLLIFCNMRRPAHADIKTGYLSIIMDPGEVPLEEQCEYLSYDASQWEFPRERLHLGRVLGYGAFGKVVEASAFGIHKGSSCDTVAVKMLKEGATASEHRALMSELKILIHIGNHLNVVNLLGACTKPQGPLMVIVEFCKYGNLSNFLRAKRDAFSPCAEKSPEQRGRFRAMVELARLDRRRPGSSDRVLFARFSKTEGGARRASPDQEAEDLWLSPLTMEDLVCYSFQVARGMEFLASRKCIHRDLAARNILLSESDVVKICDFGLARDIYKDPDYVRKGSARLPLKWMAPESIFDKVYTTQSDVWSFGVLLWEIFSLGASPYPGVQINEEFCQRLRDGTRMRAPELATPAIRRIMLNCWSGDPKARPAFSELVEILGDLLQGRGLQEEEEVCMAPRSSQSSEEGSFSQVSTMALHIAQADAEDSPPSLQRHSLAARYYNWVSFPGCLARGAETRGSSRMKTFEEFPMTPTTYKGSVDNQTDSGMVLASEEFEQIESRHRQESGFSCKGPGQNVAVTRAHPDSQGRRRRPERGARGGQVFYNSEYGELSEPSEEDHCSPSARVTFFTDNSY
pIC50: −log10 of the molar value.
MEASUREMENT_TYPE: pIC50

- COCCOCCOc1cc2nccc(Oc3ccc(NC(=O)NC4CC4)c(Cl)c3)c2cc1C(N)=O: 9.15

---

# ASSAY_SYSTEM: UniProtKB P17948
# Sequence (P17948 27-1338): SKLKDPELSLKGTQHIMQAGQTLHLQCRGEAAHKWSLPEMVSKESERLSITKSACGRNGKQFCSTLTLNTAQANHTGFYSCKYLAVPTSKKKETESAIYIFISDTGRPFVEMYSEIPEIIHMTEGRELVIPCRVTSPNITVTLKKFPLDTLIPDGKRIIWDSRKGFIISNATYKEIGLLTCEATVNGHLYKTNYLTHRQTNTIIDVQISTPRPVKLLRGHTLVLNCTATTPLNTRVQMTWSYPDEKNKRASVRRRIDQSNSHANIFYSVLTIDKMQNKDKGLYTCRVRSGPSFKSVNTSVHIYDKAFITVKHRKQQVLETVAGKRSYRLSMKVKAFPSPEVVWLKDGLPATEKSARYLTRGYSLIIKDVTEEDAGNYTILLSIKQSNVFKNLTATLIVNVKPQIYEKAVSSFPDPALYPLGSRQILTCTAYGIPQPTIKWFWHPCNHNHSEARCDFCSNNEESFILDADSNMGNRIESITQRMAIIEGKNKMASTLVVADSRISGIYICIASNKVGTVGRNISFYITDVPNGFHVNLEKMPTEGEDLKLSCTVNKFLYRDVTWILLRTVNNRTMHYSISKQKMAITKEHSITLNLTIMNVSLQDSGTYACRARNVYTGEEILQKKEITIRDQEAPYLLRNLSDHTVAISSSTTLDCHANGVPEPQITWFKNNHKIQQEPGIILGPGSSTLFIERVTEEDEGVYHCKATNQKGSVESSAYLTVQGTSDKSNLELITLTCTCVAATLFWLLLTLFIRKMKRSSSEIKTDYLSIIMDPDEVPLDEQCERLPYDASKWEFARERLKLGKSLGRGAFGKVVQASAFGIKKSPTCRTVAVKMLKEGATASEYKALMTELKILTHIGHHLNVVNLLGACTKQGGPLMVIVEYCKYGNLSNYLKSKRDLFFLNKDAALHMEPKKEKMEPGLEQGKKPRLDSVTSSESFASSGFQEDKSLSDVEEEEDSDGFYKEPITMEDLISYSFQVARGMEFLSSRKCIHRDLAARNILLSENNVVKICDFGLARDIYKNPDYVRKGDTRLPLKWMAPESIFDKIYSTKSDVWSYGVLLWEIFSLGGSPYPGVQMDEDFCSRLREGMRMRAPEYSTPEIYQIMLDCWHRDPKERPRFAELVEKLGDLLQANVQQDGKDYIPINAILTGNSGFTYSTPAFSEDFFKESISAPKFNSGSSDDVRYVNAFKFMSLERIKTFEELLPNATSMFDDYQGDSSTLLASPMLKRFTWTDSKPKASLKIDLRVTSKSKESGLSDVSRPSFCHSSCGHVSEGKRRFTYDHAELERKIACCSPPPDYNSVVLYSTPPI
pIC50: −log10 of the molar value.
MEASUREMENT_TYPE: pIC50

- COCCOCCOc1cc2nccc(Oc3ccc(NC(=O)NC4CC4)c(Cl)c3)c2cc1C(N)=O [ZLF-095]: 8.70
